- Test system: U251 CNS
- assay-notes: NCI tumour cell line growth inhibition, 48 h
For each record, write down the corresponding TGI.

Task: Return TGI (reported value) for this compound: Clc1ccc2c(c1)C1C(CO2)C(c2ccccc2)=NN1c1ccccc1 (stereo not drawn)
Result: > 100 µM

Task: Return TGI (reported value) for this compound: Nc1nc(N)c2c(n1)NC(=O)c1c(c3ccccc3n1Cc1ccc(Cl)cc1)C2
Result: > 100 µM

Task: Return TGI (reported value) for this compound: COc1c(C)c2c(c(=O)c3c(C)cccc3n2C)c2c1c(=O)c1c(C)cccc1n2C
Result: > 10 µM

* * *

- System: MALME-3M melanoma
- assay-notes: NCI tumour cell line growth inhibition, 48 h; in the data active = GI50 below about 0.43 µM; inactive = the rest
# valid calls are active, inactive; nothing else

Task: # lookup: test call for O=c1ccn(C2OC(CO/N=C/c3ccc(O)c(O)c3O)C(O)C2O)c(=O)[nH]1 (stereo not given)
Result: inactive

Task: # lookup: test call for COc1ccc(-n2nnnc2-c2c[nH]c3c(F)cc(F)cc23)cc1
Result: inactive

Task: # lookup: test call for CC1(C)N=C(N)N=C(N)N1c1ccc(OCCCCOc2ccc(S(=O)(=O)F)cc2)c(Cl)c1
Result: inactive

Task: # lookup: test call for CCOc1ccc(-c2nonc2NC(=O)c2cccc(C)c2)cc1OCC
Result: inactive

Task: # lookup: test call for O=C1/C(=C/c2ccccc2)CN(C(=O)c2cccnc2)C/C1=C\c1ccccc1
Result: inactive

Task: # lookup: test call for C/C(=N\Nc1cc(C)c2cc(C)ccc2n1)c1ccccn1
Result: active

Task: # lookup: test call for CC(C)[C@H](CO)Nc1nc(Nc2ccc(C(=O)NCCNS(=O)(=O)c3cccc4c(N(C)C)cccc34)c(Cl)c2)c2ncn(C(C)C)c2n1
Result: inactive

Task: # lookup: test call for COC(=O)C1=C(C(=O)ON)C2C=CC1(C(Cc1ccccc1)Nc1ccccc1)O2 (stereo not given)
Result: inactive

Task: # lookup: test call for Cc1cc2nc3c4cc(N)ccc4n(CCN(C)C)c3nc2cc1C
Result: inactive

Task: # lookup: test call for O=C(CNc1ccc2c(c1)C(=O)c1ccccc1C2=O)Nc1ccc2c(c1)C(=O)c1ccccc1C2=O
Result: inactive
